Measured MIC values are reported for all entries that follow.
Test system: Cryptococcus neoformans
ASSAY_EXPLANATION: Antifungal activity against Cryptococcus neoformans ATCC 3315 after 72 to 96 hr by two-fold serial dilution method
Type: functional
Report only the number, with the unit µg/mL understood.

MOLECULE	READING
C[C@@H]1[C@H](O)[C@@H](C)/C=C/C=C/C=C/C=C/C=C/C=C/C=C/[C@H](O[C@@H]2O[C@H](C)[C@@H](O)[C@H](N)[C@@H]2O)C[C@@H]2O[C@](O)(C[C@@H](O)C[C@@H](O)[C@H](O)CC[C@@H](O)C[C@@H](O)CC(=O)O[C@H]1C)C[C@H](O)[C@H]2C(=O)O	25
CCOC(=O)N1CCN(CC(=O)N2C(c3ccccc3)CC(=O)C(CC)C2c2ccccc2)CC1 (configuration not stated)	25
CCOC(=O)N1CCN(CC(=O)N2C(c3ccccc3)CC(=O)C(C)C2c2ccccc2)CC1 (configuration not stated)	50
CCOC(=O)N1CCN(CC(=O)N2C(c3ccc(C)cc3)CC(=O)C(C)C2c2ccc(C)cc2)CC1 (configuration not stated)	50
CCOC(=O)N1CCN(CC(=O)N2C(c3ccc(OC)cc3)C(C)C(=O)C(C)C2c2ccc(OC)cc2)CC1 (configuration not stated)	200

Req: Quick check: MIC of CCOC(=O)N1CCN(CC(=O)N2C(c3ccc(F)cc3)CC(=O)C(CC)C2c2ccc(F)cc2)CC1 (configuration not stated) ?
Resp: 100

Req: Name the recorded MIC for CCOC(=O)N1CCN(CC(=O)N2C(c3ccccc3)C(C)C(=O)C(C)C2c2ccccc2)CC1 (configuration not stated) .
Resp: 25

* * *

System: Aspergillus flavus
ASSAY_EXPLANATION: Antifungal activity against Aspergillus flavus ATCC 470 after 72 to 96 hr by two-fold serial dilution method
Format: functional
Binary label based on MIC with cut-off 50 µg/mL: below gives TRUE, not below gives FALSE.

MOLECULE	SUBJECT_OF_TEST	LABEL_VALUE
CCOC(=O)N1CCN(CC(=O)N2C(c3ccccc3)CC(=O)C(CC)C2c2ccccc2)CC1 (centres undefined)	Aspergillus flavus	TRUE

Req: Item CCOC(=O)N1CCN(CC(=O)N2C(c3cccc(F)c3)CC(=O)C(C)C2c2cccc(F)c2)CC1 (centres undefined) : MIC beneath 50 µg/mL, strictly?
Resp: FALSE

Req: I'd appreciate it if you could check whether CCOC(=O)N1CCN(CC(=O)N2C(c3ccc(C)cc3)CC(=O)C(C)C2c2ccc(C)cc2)CC1 (centres undefined) has MIC smaller than 50 µg/mL.
Resp: FALSE

Req: Determine whether this molecule shows MIC lower than 50 µg/mL (ties excluded): CCOC(=O)N1CCN(CC(=O)N2C(c3ccc(F)cc3)CC(=O)C(CC)C2c2ccc(F)cc2)CC1 (centres undefined)
Resp: FALSE

* * *

Below: a set of entries, each annotated with reported MIC.
Tested on: Aspergillus flavus
ASSAY_EXPLANATION: Antifungal activity against Aspergillus flavus ATCC 470 after 72 to 96 hr by two-fold serial dilution method
Type: functional
Answer with a number only, understood to be in µg/mL.

Record excerpt, results attached:
COMPOUND	UNIT_LABEL	READING
CCOC(=O)N1CCN(CC(=O)N2C(c3ccccc3)CC(=O)C(C)C2c2ccccc2)CC1 (stereo not given)	µg/mL	200
CCOC(=O)N1CCN(CC(=O)N2C(c3ccccc3)C(C)C(=O)C(C)C2c2ccccc2)CC1 (stereo not given)	µg/mL	100

Req: Look at this compound and give its reported MIC. CCOC(=O)N1CCN(CC(=O)N2C(c3ccc(OC)cc3)C(C)C(=O)C(C)C2c2ccc(OC)cc2)CC1 (stereo not given)
Resp: 100

Req: Which measured MIC value corresponds to C[C@@H]1[C@H](O)[C@@H](C)/C=C/C=C/C=C/C=C/C=C/C=C/C=C/[C@H](O[C@@H]2O[C@H](C)[C@@H](O)[C@H](N)[C@@H]2O)C[C@@H]2O[C@](O)(C[C@@H](O)C[C@@H](O)[C@H](O)CC[C@@H](O)C[C@@H](O)CC(=O)O[C@H]1C)C[C@H](O)[C@H]2C(=O)O ?
Resp: 50

Req: Would you kindly share the measured MIC for CCOC(=O)N1CCN(CC(=O)N2C(c3ccc(F)cc3)CC(=O)C(C)C2c2ccc(F)cc2)CC1 (stereo not given) ?
Resp: 25

Cited source for all entries: ChEMBL document CHEMBL3045244
